Measured values drawn from ChEMBL document CHEMBL1133636 for this set.

Organism: Rattus norvegicus
Test: Concentration required for 50% inhibitory effect on automatic oxidation in plasma membrane of rat brain homogenates by measuring malondialdehyde and 4-hydroxyalkenals using peroxidized lipid colorimetric assay kit.
Format: functional
OBSERVATION TYPE: IC50

In: Could you share which IC50 value was measured for Cc1c(C)c2c(c(C)c1O)CC[C@@](C)(CCC[C@H](C)CCC[C@H](C)CCCC(C)C)O2 ?
Out: > 100 µM

###

Test: Inhibition of low-threshold (T-type) Calcium [Ca2+] currents in primary cultured rat cerebrocortical neurons using whole-cell voltage-clamp recording technique
Assay type: functional
OBSERVATION TYPE: pIC50
The scale used: pIC50 is minus the common logarithm of the concentration in molar units.

# annotated cases, reported pIC50 shown
1. Fc1ccc(C(c2ccc(F)cc2)N2CCN(C/C=C/c3ccccc3)CC2)cc1 | 5.66
2. CC(C)c1ccc(CN2CCN(C(c3ccc(F)cc3)c3ccc(F)cc3)CC2)c(=O)c(NCCO)c1 | 6.52

In: I have this compound here, CS(=O)(=O)O.CS(=O)(=O)O.Cc1cc(OC[C@@H](O)CN2CCN(c3ccc(Cc4ccc(F)cc4)cc3)CC2)c(C)c(C)c1N , and I need its recorded pIC50.
Out: 5.70

###

Molecular target: D(2) dopamine receptor (Rattus norvegicus, UniProt P61169)
Sequence (P61169 whole entry): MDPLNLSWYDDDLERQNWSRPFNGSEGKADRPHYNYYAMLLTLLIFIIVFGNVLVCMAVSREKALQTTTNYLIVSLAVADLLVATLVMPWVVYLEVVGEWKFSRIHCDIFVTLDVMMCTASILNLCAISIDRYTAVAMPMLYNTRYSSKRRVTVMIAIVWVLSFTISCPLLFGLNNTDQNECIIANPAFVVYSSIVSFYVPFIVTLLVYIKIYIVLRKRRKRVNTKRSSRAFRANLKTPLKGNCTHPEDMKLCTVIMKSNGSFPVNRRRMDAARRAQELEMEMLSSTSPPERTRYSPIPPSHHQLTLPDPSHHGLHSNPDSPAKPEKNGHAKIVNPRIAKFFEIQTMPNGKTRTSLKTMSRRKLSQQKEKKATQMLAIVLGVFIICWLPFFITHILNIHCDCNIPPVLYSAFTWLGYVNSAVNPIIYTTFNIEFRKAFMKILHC
Test: Concentration required for 50% inhibitory effect on Dopamine receptor D2 determined in competition experiments with [3H]raclopride
OBSERVATION TYPE: pIC50
Notebook: values listed as pIC50 are -log10 of the concentration (mol/L).

In: Given CC(C)c1ccc(CN2CCN(C(c3ccc(F)cc3)c3ccc(F)cc3)CC2)c(=O)c(NCCO)c1 , state its recorded pIC50.
Out: 5.77
